Cited source: paper PMC9586938

Listed here: items and their measured Kd.
biological target: CAVA (Homo sapiens, UniProt P35218); experiment: Thermal shift assay (TSA), recombinant CAVA; conditions: 37 °C, pH 7.0, observed (not intrinsic)
Sequence (P35218 39-305): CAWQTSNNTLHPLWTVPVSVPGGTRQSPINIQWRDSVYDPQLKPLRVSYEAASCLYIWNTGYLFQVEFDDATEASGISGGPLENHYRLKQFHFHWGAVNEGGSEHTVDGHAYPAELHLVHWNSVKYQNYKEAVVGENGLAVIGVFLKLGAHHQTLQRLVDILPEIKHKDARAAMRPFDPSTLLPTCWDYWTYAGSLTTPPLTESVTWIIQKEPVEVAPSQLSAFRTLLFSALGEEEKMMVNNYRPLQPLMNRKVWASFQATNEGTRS
Please respond with the number in µM and leave the unit unwritten.

Would you mind telling me what Kd value was observed for NS(=O)(=O)c1c(F)c(F)c(S(=O)(=O)CCC(=O)O)c(NC2CCCCCCC2)c1F [GZ18-23] ?
12.5

Try the compound NS(=O)(=O)c1c(F)c(F)c(S(=O)(=O)CCC(=O)NCCCC(=O)Nc2ccc3c(c2)C(=O)OC32c3ccc(O)cc3Oc3cc(O)ccc32)c(NC2CCCCCCC2)c1F [GZ20-40]
1

###

Listed here: items and their measured Kd.
biological target: CAII (Homo sapiens); assay: Thermal shift assay (TSA), recombinant CAII; conditions: 37 °C, pH 7.0, observed (not intrinsic)
Please respond with the number in nM and leave the unit unwritten.

Recorded results for 2 compounds are shown here.
Would you mind telling me what Kd value was observed for NS(=O)(=O)c1c(F)c(F)c(S(=O)(=O)CCC(=O)O)c(NC2CCCCCCC2)c1F [GZ18-23] ?
160

Try the compound NS(=O)(=O)c1c(F)c(F)c(S(=O)(=O)CCC(=O)NCCCC(=O)Nc2ccc3c(c2)C(=O)OC32c3ccc(O)cc3Oc3cc(O)ccc32)c(NC2CCCCCCC2)c1F [GZ20-40]
200

***
Would you mind telling me what Kd value was observed for NS(=O)(=O)c1c(F)c(F)c(S(=O)(=O)CCC(=O)Nc2ccc3c(c2)C(=O)OC32c3ccc(O)cc3Oc3cc(O)ccc32)c(F)c1F [GZ19-31] ?
1.7

Try the compound NS(=O)(=O)c1c(F)c(F)c(S(=O)(=O)CCC(=O)Nc2ccc3c(c2)C(=O)OC32c3ccc(O)cc3Oc3cc(O)ccc32)c(NC2CCCCCCC2)c1F [GZ19-32]
14

###

target: CAVB (Homo sapiens); assay: Thermal shift assay (TSA), recombinant CAVB; conditions: 37 °C, pH 7.0, observed (not intrinsic)
Sequence (Q9Y2D0 34-317): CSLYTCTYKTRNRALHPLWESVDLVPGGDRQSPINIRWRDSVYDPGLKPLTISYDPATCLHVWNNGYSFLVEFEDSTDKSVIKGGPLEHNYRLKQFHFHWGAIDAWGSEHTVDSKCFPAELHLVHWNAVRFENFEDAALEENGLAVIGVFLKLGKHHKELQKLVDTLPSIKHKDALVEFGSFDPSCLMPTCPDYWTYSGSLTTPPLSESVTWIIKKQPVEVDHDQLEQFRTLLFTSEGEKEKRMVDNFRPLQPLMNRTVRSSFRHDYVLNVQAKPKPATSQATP
Quantity: pKd
The quantity pKd is defined as the negative base-10 logarithm of the molar concentration.

Recorded results for 3 molecules are shown here.
Would you mind telling me what pKd value was observed for `NS(=O)(=O)c1c(F)c(F)c(S(=O)(=O)CCC(=O)Nc2ccc3c(c2)C(=O)OC32c3ccc(O)cc3Oc3cc(O)ccc32)c(F)c1F` ?
7.70

Try the molecule `NS(=O)(=O)c1c(F)c(F)c(S(=O)(=O)CCC(=O)NCCCC(=O)Nc2ccc3c(c2)C(=O)OC32c3ccc(O)cc3Oc3cc(O)ccc32)c(NC2CCCCCCC2)c1F`
7.48

Try the molecule `NS(=O)(=O)c1c(F)c(F)c(S(=O)(=O)CCC(=O)Nc2ccc3c(c2)C(=O)OC32c3ccc(O)cc3Oc3cc(O)ccc32)c(NC2CCCCCCC2)c1F`
7.89

Shift focus to the following entry.
Would you mind telling me what pKd value was observed for `NS(=O)(=O)c1c(F)c(F)c(S(=O)(=O)CCC(=O)O)c(NC2CCCCCCC2)c1F` ?
6.80

###

Listed here: items and their measured Kd.
biological target: CAIII (Homo sapiens, UniProt P07451); test: Thermal shift assay (TSA), recombinant CAIII; details: 37 °C, pH 7.0, observed (not intrinsic)
Sequence (P07451 whole entry): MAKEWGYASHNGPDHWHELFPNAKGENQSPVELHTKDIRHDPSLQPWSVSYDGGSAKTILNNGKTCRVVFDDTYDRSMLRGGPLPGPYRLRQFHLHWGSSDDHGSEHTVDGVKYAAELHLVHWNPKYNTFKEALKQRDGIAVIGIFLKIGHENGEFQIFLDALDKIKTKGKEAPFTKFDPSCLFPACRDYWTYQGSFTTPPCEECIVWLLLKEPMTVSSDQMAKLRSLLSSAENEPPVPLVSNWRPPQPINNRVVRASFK

Recorded results for 2 compounds are shown here.
Would you mind telling me what Kd value was observed for `NS(=O)(=O)c1c(F)c(F)c(S(=O)(=O)CCC(=O)O)c(NC2CCCCCCC2)c1F` ?
> 200 µM

Try the compound `CS(=O)(=O)c1c(F)c(F)c(SCCC(=O)Nc2ccc3c(c2)C(=O)OC32c3ccc(O)cc3Oc3cc(O)ccc32)c(F)c1F`
> 100 µM

***
Would you mind telling me what Kd value was observed for NS(=O)(=O)c1ccc(NC(=O)Nc2ccc(F)cc2)cc1 [SLC-0111, reference compound] ?
> 200 µM
